Kindly supply the reported pIC50 values for the records listed here.
System: human cytomegalovirus (HCMV)
Assay: Antiviral activity against HCMV, virus yield/replication assay in MRC5 cells
Format: cell-based
Conditions: Human betaherpesvirus 5; infected human MRC5 cells; virus yield in supernatant at 96 hours / four days, read by IE protein expression in fresh MRC5 cells
Numbers only, as −log10 of the molar value.

- molecule: "COc1ccc(C(C)CC(=O)Nc2ccc3ncccc3c2)cc1 (stereo not drawn)"
  val: 5.24
- molecule: "CC(CCOc1cccc2cccnc12)c1ccccc1Cl (stereo not drawn)"
  val: 5.70
- molecule: "COc1ccccc1C(C)CCNc1ccc2ncccc2c1 (stereo not drawn)"
  val: 4.63
- molecule: "CC(CNc1cccc2[nH]ccc12)C(C)c1ccccc1Cl (stereo not drawn)"
  val: 5.46
- molecule: "CC(CCC(=O)Nc1cccc2cccnc12)c1ccccc1Cl (stereo not drawn)"
  val: 5.35

Would you mind giving pIC50 for every molecule in the list below?
1. COc1ccccc1C(C)CCNc1cccc2ccccc12 (stereo not drawn)
2. CC(CCNc1cccc2cccnc12)c1ccccc1Br (stereo not drawn)
3. COc1cccc(C(C)CCNc2ccc3ncccc3c2)c1 (stereo not drawn)
4. CC(CCNc1ccc(Br)c2cccnc12)c1ccccc1Cl (stereo not drawn)
5. CC(CCNc1cccc2cccnc12)c1c(Cl)cccc1Cl (stereo not drawn)

RESULT:
1. 5.55
2. 5.53
3. 5.24
4. 5.10
5. 5.71

Would you mind giving pIC50 for every molecule in the list below?
1. CC(CNc1cccc2nccnc12)C(C)c1cc(Cl)ccc1Cl (stereo not drawn)
2. CC(CCNc1ccc(Br)c2cccnc12)c1ccccc1 (stereo not drawn)

RESULT:
1. 5.19
2. 4.94

Would you mind giving pIC50 for every molecule in the list below?
1. CC(CCCNc1cccc2cccnc12)c1ccccc1Cl (stereo not drawn)
2. COc1ccc(C(C)CC(=O)Nc2cccc3cccnc23)cc1 (stereo not drawn)
3. COc1ccccc1CCCNc1cccc2cccnc12
4. COc1ccccc1C(C)C(C)C(=O)Nc1cccc2cccnc12 (stereo not drawn)
5. COc1ccc(C(C)CCNc2cccc3cccnc23)cc1 (stereo not drawn)

RESULT:
5.20
4.57
4.92
4.94
5.49
